Target entity: Glutamate NMDA receptor; Grin1/Grin2c (Rattus norvegicus) (UniProt P35439+Q00961)
Test summary: Potentiation of rat recombinant GluN1/GluN2C expressed in Xenopus laevis oocytes assessed as increase in glutamate/glycine-induced current response at 30 uM by two-electrode voltage clamp technique relative to control
Format: cell-based
Each entry below carries its recorded max activation.

Compound	Target entity	Measure unit	max activation
COC(=O)c1ccc(C2C(C(=O)c3cccc(O)c3)=C(O)C(=O)N2CCc2c[nH]c3ccccc23)cc1 (stereo not drawn)	Glutamate NMDA receptor; Grin1/Grin2c (Rattus norvegicus) (UniProt P35439+Q00961)	%	176
C=CC(=O)OC1=C(C(C)=O)C(c2ccc(C(=O)OC)cc2)N(CCc2c(C)[nH]c3ccccc23)C1=O (stereo not drawn)	Glutamate NMDA receptor; Grin1/Grin2c (Rattus norvegicus) (UniProt P35439+Q00961)	%	208
COC(=O)c1ccc(C2C(C(=O)c3cccnc3)=C(O)C(=O)N2CCc2c(C)[nH]c3ccccc23)cc1 (stereo not drawn)	Glutamate NMDA receptor; Grin1/Grin2c (Rattus norvegicus) (UniProt P35439+Q00961)	%	204
COC(=O)c1ccc(C2C(C(=O)c3cccnc3)=C(O)C(=O)N2CCc2c[nH]c3c(Cl)cccc23)cc1 (stereo not drawn)	Glutamate NMDA receptor; Grin1/Grin2c (Rattus norvegicus) (UniProt P35439+Q00961)	%	128
COC(=O)c1ccc(C2C(C(C)=O)=C(O)C(=O)N2CCc2c[nH]c3ccccc23)cc1O (stereo not drawn)	Glutamate NMDA receptor; Grin1/Grin2c (Rattus norvegicus) (UniProt P35439+Q00961)	%	151
COC(=O)c1ccc(C2C(C(=O)c3cccnc3)=C(O)C(=O)N2CCc2c[nH]c3c(F)cccc23)cc1 (stereo not drawn)	Glutamate NMDA receptor; Grin1/Grin2c (Rattus norvegicus) (UniProt P35439+Q00961)	%	191
COC(=O)c1ccc(C2C(C(=O)c3cccnc3)=C(O)C(=O)N2CCc2c[nH]c3cc(F)ccc23)cc1 (stereo not drawn)	Glutamate NMDA receptor; Grin1/Grin2c (Rattus norvegicus) (UniProt P35439+Q00961)	%	167
COC(=O)c1ccc(C2C(C(=O)c3cccc(Cl)c3)=C(O)C(=O)N2CCc2c[nH]c3ccccc23)cc1 (stereo not drawn)	Glutamate NMDA receptor; Grin1/Grin2c (Rattus norvegicus) (UniProt P35439+Q00961)	%	145

###

Target entity: Glutamate NMDA receptor; Grin1/Grin2b (Rattus norvegicus) (UniProt P35439+Q00960)
Test summary: Potentiation of rat recombinant GluN1/GluN2B expressed in Xenopus laevis oocytes assessed as increase in glutamate/glycine-induced current response at 30 uM by two-electrode voltage clamp technique relative to control
Format: cell-based

Molecule	Activity, %
NS(=O)(=O)c1ccc(C2C(C(=O)c3cccnc3)=C(O)C(=O)N2CCc2c[nH]c3ccccc23)cc1 (configuration not stated)	82
COC(=O)c1ccc(C2C(C(=O)c3ccncc3)=C(O)C(=O)N2Cc2c[nH]c3ccccc23)cc1 (configuration not stated)	101
COC(=O)c1ccc(C2C(C(=O)c3cccnc3)=C(O)C(=O)N2CCc2c[nH]c3cc(OC)ccc23)cc1 (configuration not stated)	98
COC(=O)c1ccc(C2C(C(C)=O)=C(O)C(=O)N2CCc2c[nH]c3ccccc23)cc1OC (configuration not stated)	80
COC(=O)c1ccc(C2C(C(=O)c3cccc(OC)c3)=C(O)C(=O)N2CCc2c[nH]c3ccccc23)cc1 (configuration not stated)	90
CC(=O)C1=C(O)C(=O)N(CCc2c[nH]c3ccccc23)C1c1ccc([N+](=O)[O-])cc1 (configuration not stated)	83
CCCC(=O)OC1=C(C(C)=O)C(c2ccc(C(=O)OC)cc2)N(CCc2c(C)[nH]c3ccccc23)C1=O (configuration not stated)	93
COC(=O)c1ccc(C2C(C(C)=O)=C(O)C(=O)N2CCc2ccccc2)cc1 (configuration not stated)	117
COC(=O)c1ccc(C2C(C(=O)c3cccnc3)=C(O)C(=O)N2CCc2coc3ccccc23)cc1 (configuration not stated)	83
COC(=O)c1ccc(C2C(C(=O)c3cccnc3)=C(O)C(=O)N2CCc2c[nH]c3cccc(C)c23)cc1 (configuration not stated)	70
COC(=O)c1ccc(C2C(C(=O)c3cccnc3)=C(O)C(=O)N2CCc2c[nH]c3cc(Cl)ccc23)cc1 (configuration not stated)	66
COC(=O)c1ccc(C2C(C(=O)c3cccnc3)=C(O)C(=O)N2CCc2c[nH]c3c(F)cccc23)cc1 (configuration not stated)	84
COC(=O)c1cccc(C2C(C(C)=O)=C(O)C(=O)N2CCc2c[nH]c3ccccc23)c1 (configuration not stated)	88
NC(=O)c1ccc(C2C(C(=O)c3cccnc3)=C(O)C(=O)N2CCc2c[nH]c3ccccc23)cc1 (configuration not stated)	92
COC(=O)c1ccc(C2C(C(C)=O)=C(O)C(=O)N2CCc2c[nH]c3ccccc23)cc1Cl (configuration not stated)	95
CCC(=O)C1=C(O)C(=O)N(CCc2c[nH]c3ccccc23)C1c1ccc(C(=O)OC)cc1 (configuration not stated)	77
COC(=O)c1ccc(C2C(C(=O)c3ccncc3)=C(O)C(=O)N2CCc2c[nH]cn2)cc1 (configuration not stated)	95

###

Target entity: Glutamate NMDA receptor; Grin1/Grin2c (Rattus norvegicus) (UniProt P35439+Q00961)
Test summary: Potentiation of rat recombinant GluN1/GluN2C expressed in Xenopus laevis oocytes assessed as increase in glutamate/glycine-induced current response at 30 uM by two-electrode voltage clamp technique relative to control
Format: cell-based
Examples of molecules with documented Activity follow.

Molecule	Target entity	Measure unit	Activity
COC(=O)c1ccc(C2C(C(C)=O)=C(O)C(=O)N2CCc2c[nH]c3ccccc23)c(C)c1 (stereo not drawn)	Glutamate NMDA receptor; Grin1/Grin2c (Rattus norvegicus) (UniProt P35439+Q00961)	%	129
COC(=O)c1ccc(C2C(C(=O)c3cccc(OC)c3)=C(O)C(=O)N2CCc2c[nH]c3ccccc23)cc1 (stereo not drawn)	Glutamate NMDA receptor; Grin1/Grin2c (Rattus norvegicus) (UniProt P35439+Q00961)	%	109
COC(=O)c1ccc(C2C(C(=O)c3ccncc3)=C(O)C(=O)N2CCc2c[nH]c3ccccc23)cc1 (stereo not drawn)	Glutamate NMDA receptor; Grin1/Grin2c (Rattus norvegicus) (UniProt P35439+Q00961)	%	186
COC(=O)c1ccc(C2C(C(=O)c3cccnc3)=C(O)C(=O)N2CCc2c[nH]c3c(Cl)cccc23)cc1 (stereo not drawn)	Glutamate NMDA receptor; Grin1/Grin2c (Rattus norvegicus) (UniProt P35439+Q00961)	%	127
COC(=O)c1ccc(C2C(C(C)=O)=C(O)C(=O)N2CCc2c[nH]c3ccccc23)cc1F (stereo not drawn)	Glutamate NMDA receptor; Grin1/Grin2c (Rattus norvegicus) (UniProt P35439+Q00961)	%	114
COC(=O)c1ccc(C2C(C(=O)c3cccnc3)=C(O)C(=O)N2CCc2c[nH]c3ccccc23)cc1 (stereo not drawn)	Glutamate NMDA receptor; Grin1/Grin2c (Rattus norvegicus) (UniProt P35439+Q00961)	%	180
CCOC(=O)c1ccc(C2C(C(C)=O)=C(O)C(=O)N2CCc2c[nH]c3ccccc23)c(O)c1 (stereo not drawn)	Glutamate NMDA receptor; Grin1/Grin2c (Rattus norvegicus) (UniProt P35439+Q00961)	%	145
C=CC(=O)OC1=C(C(C)=O)C(c2ccc(C(=O)OC)cc2)N(CCc2c(C)[nH]c3ccccc23)C1=O (stereo not drawn)	Glutamate NMDA receptor; Grin1/Grin2c (Rattus norvegicus) (UniProt P35439+Q00961)	%	125

###

Target entity: Glutamate NMDA receptor; Grin1/Grin2b (Rattus norvegicus) (UniProt P35439+Q00960)
Test summary: Potentiation of rat recombinant GluN1/GluN2B expressed in Xenopus laevis oocytes assessed as increase in glutamate/glycine-induced current response at 30 uM by two-electrode voltage clamp technique relative to control
Type: cell-based
Quantity: Activity (%)

Compound	Quantity	Measure unit	Reported
COC(=O)c1ccc(C2C(C(=O)c3cccnc3)=C(O)C(=O)N2CCc2c[nH]c3ccccc23)cc1 (stereo unspecified)	Activity	%	76
COC(=O)c1ccc(C2C(C(C)=O)=C(O)C(=O)N2CCc2c[nH]c3ccccc23)c(F)c1 (stereo unspecified)	Activity	%	96
COC(=O)c1ccc(C2C(C(=O)c3ccncc3)=C(O)C(=O)N2CCn2cnc3ccccc32)cc1 (stereo unspecified)	Activity	%	107
COC(=O)c1ccc(C2C(C(=O)c3ccccc3)=C(O)C(=O)N2CCc2c[nH]c3ccccc23)cc1 (stereo unspecified)	Activity	%	85
CC(=O)C1=C(O)C(=O)N(CCc2c[nH]c3ccccc23)C1c1ccc(C(=O)OC(C)C)cc1 (stereo unspecified)	Activity	%	95
COC(=O)c1ccc(C2C(C(C)=O)=C(OC(C)=O)C(=O)N2CCc2c[nH]c3ccccc23)cc1 (stereo unspecified)	Activity	%	90
COC(=O)c1ccc(C2C(C(C)=O)=C(O)C(=O)N2CCc2c[nH]c3ccccc23)c(Cl)c1 (stereo unspecified)	Activity	%	87
CCOC(=O)c1ccc(C2C(C(=O)c3ccncc3)=C(O)C(=O)N2CCc2c[nH]c3ccccc23)cc1 (stereo unspecified)	Activity	%	91
COC(=O)c1ccc(C2C(C(=O)c3cccc(Cl)c3)=C(O)C(=O)N2CCc2c[nH]c3ccccc23)cc1 (stereo unspecified)	Activity	%	83
CC(=O)C1=C(O)C(=O)N(CCc2c[nH]c3ccccc23)C1c1ccc(C(=O)O)cc1 (stereo unspecified)	Activity	%	94
CN(C)C(=O)c1ccc(C2C(C(=O)c3cccnc3)=C(O)C(=O)N2CCc2c[nH]c3ccccc23)cc1 (stereo unspecified)	Activity	%	86
COC(=O)c1ccccc1C1C(C(C)=O)=C(O)C(=O)N1CCc1c[nH]c2ccccc12 (stereo unspecified)	Activity	%	78
COC(=O)c1ccc(C2C(C(=O)c3ccncc3)=C(O)C(=O)N2CCc2c[nH]c3ccccc23)cc1 (stereo unspecified)	Activity	%	87
COC(=O)c1ccc(C2C(C(C)=O)=C(O)C(=O)N2CCc2c[nH]c3ccccc23)cc1O (stereo unspecified)	Activity	%	79
C=CC(=O)OC1=C(C(C)=O)C(c2ccc(C(=O)OC)cc2)N(CCc2c(C)[nH]c3ccccc23)C1=O (stereo unspecified)	Activity	%	104
COC(=O)c1ccc(C2C(C(=O)c3cccnc3)=C(O)C(=O)N2CCc2c[nH]c3c(Cl)cccc23)cc1 (stereo unspecified)	Activity	%	85
COC(=O)c1ccc(C2C(C(=O)c3cccnc3)=C(O)C(=O)N2CCc2c(C)[nH]c3ccccc23)cc1 (stereo unspecified)	Activity	%	77
N#Cc1ccc(C2C(C(=O)c3cccnc3)=C(O)C(=O)N2CCc2c[nH]c3ccccc23)cc1 (stereo unspecified)	Activity	%	89
COC(=O)c1ccc(C2C(C(C)=O)=C(O)C(=O)N2CCc2c[nH]c3ccccc23)cc1F (stereo unspecified)	Activity	%	83
COC(=O)c1ccc(C2C(C(=O)c3ccccn3)=C(O)C(=O)N2CCc2c[nH]c3ccccc23)cc1 (stereo unspecified)	Activity	%	78
CCOC(=O)c1ccc(C2C(C(C)=O)=C(O)C(=O)N2CCc2c[nH]c3ccccc23)c(O)c1 (stereo unspecified)	Activity	%	100
